attributeMeasured: melting point

In: Need melting point of CCCCC(=O)Nc1c(C(=O)OC)cccc1[N+](=O)[O-] , thanks.
Out: 61 to 62 °C

In: Need melting point of CC(C)[C@H](NC(=O)[C@@H]1CCCN1C(=O)OCc1ccccc1)C(=O)O , thanks.
Out: 132 to 134 °C

In: Need melting point of CC(C)(C=O)C(O)(COc1cccc2ccccc12)Cn1ccnc1 (centres undefined) , thanks.
Out: 147 °C

In: Need melting point of CCN1CCC2(CC1)COc1cc3c(cc12)N(C(=O)c1ccc(-c2ccc(C(=O)NN)cc2C)cc1)CC3 , thanks.
Out: 222 to 225 °C

In: Need melting point of COc1cc2c(cc1OC)CC(NC(=O)N(C)O)CC2 (centres undefined) , thanks.
Out: 150 to 151 °C

In: Need melting point of Oc1ccc(Nc2nccc(-c3ccncc3)n2)cc1 , thanks.
Out: 268 to 270 °C

In: Need melting point of C=CCOC(=O)c1c(C)nc2c(cnn2CCC#CC)c1N , thanks.
Out: 114 to 115 °C

In: Need melting point of CCOC(=O)C(C(=O)Nc1nccs1)C(=O)c1cccc(C(F)(F)F)c1NC(=O)C(Cl)C(C)(C)C (centres undefined) , thanks.
Out: 180 °C

In: Need melting point of CCOc1ccc(-c2ccc3c(c2)C=C(C(=O)Nc2ccc(CN(C)C4CCOCC4)cc2)CCO3)cc1 , thanks.
Out: 174 to 176 °C

====

Record form. Attribute: melting point. Fill in for each entry.

In: Need melting point of CCn1cc(C(=O)O)c(=O)c2c(C)c(F)c(N3CCC(N)C3)c(F)c21 (stereo not given) , thanks.
Out: 218 to 220 °C

In: Need melting point of CCOC(=O)CCc1cc2c(c(Br)c1Br)OCC2 , thanks.
Out: 42 to 43 °C

In: Need melting point of CCCOc1cccc(-c2nc(=O)c3ccccc3s2)n1 , thanks.
Out: 138 to 140 °C

In: Need melting point of CONC(=O)c1ccccc1SCc1ccccc1 , thanks.
Out: 100 to 105 °C

In: Need melting point of Nc1cccc(-c2ccnc3c(Br)cnn23)c1 , thanks.
Out: 120 to 121 °C

In: Need melting point of CCCCC(N=O)C(C)(C)Cl (stereo not given) , thanks.
Out: 84 to 85 °C

In: Need melting point of Cc1ccc(Sc2cc(C(C)(C)C)c(O)c(C(=O)O)c2C)cc1 , thanks.
Out: 163 to 164 °C

In: Need melting point of O=C(NNC(=O)C(O)c1cccc(O)c1)c1c(O)cc(O)cc1Cl (stereo not given) , thanks.
Out: 230 to 231 °C

In: Need melting point of CCCCCCCN(CCCCCSc1nc2cc(C)ccc2[nH]1)C(=O)Nc1ccc(F)cc1F , thanks.
Out: 70 to 72 °C

In: Need melting point of CCC(Oc1ccc(C(C)(C)CC(C)(C)C)cc1)C(=O)Nc1ccc(Cl)c(Nc2cc(=O)n(-c3c(Cl)cc(Cl)cc3Cl)[nH]2)c1 (stereo not given) , thanks.
Out: 163 to 165 °C

====

attributeMeasured: melting point

In: Need melting point of CC1(c2ccc(CNC(=O)CCl)cc2)Cc2cc(OCC(=O)O)c(Cl)c(Cl)c2C1=O (configuration not stated) , thanks.
Out: 138 to 141 °C

In: Need melting point of CC(C)(C)OC(=O)NCC12CCC1CNC2 (configuration not stated) , thanks.
Out: 83 to 86 °C

In: Need melting point of COc1ccc2c(Nc3ccc4cn[nH]c4c3)c(C#N)cnc2c1 , thanks.
Out: > 250 °C

In: Need melting point of COC1OC(COCc2ccccc2)C(OCc2ccccc2)C(OCc2ccccc2)C1OCc1ccccc1 (configuration not stated) , thanks.
Out: 68 to 69 °C

In: Need melting point of CC(C)(C)OC(=O)NCCNC(=O)c1ncsc1-c1cccc(OCc2cccc(C#N)c2)c1 , thanks.
Out: 115 °C

In: Need melting point of O=c1oc2ccc(Cl)cc2c(O)c1CCO , thanks.
Out: 185 to 186 °C

In: Need melting point of COC(=O)c1c(Cl)cc(Cl)c2ccc(Cl)cc12 , thanks.
Out: 113 to 115 °C

In: Need melting point of O=C1C(=O)c2ccccc2C2=C1SCC1(CCN(C(=O)c3nc4ccccc4[nH]3)CC1)O2 , thanks.
Out: 266 to 268 °C

In: Need melting point of COC(=O)c1cccc(-c2nc(=O)c3ccccc3s2)c1 , thanks.
Out: 164 °C

In: Need melting point of COc1ccc(C#Cc2cc(Cl)cc3c2OC(C(F)(F)F)C(C(=O)O)=C3)cc1 (configuration not stated) , thanks.
Out: 218 to 219 °C

In: Need melting point of Cc1cc(N2CCCC2)c2ccc(I)cc2n1 , thanks.
Out: 99 to 102 °C

In: Need melting point of Cc1cc(OCc2cccc(C(=O)O)c2)c([N+](=O)[O-])cc1S(=O)(=O)N(C)C , thanks.
Out: 220 to 221 °C

In: Need melting point of OCc1cc(Nc2nc(-c3ccccc3)nc3ccccc23)[nH]n1 , thanks.
Out: 238 to 239 °C

In: Need melting point of COc1ccc(-c2nc3ncccc3o2)cc1OC1CCCC1 , thanks.
Out: 108 to 109 °C

In: Need melting point of Nc1ccn(-c2ccc(Br)cc2)n1 , thanks.
Out: 122 to 123 °C

In: Need melting point of CCCc1nnc2c(N(CC)CC)nc3ccccc3n12 , thanks.
Out: 92 to 94 °C

In: Need melting point of N#Cc1cc2c(Oc3ccc(Cl)cc3)cncc2s1 , thanks.
Out: 140 to 142 °C

In: Need melting point of Cc1nc2c(s1)CCCC2=O , thanks.
Out: 86 to 87 °C

In: Need melting point of CN(C1CCCOc2ccccc21)S(C)(=O)=O (configuration not stated) , thanks.
Out: 143 to 145 °C

In: Need melting point of COC(=O)C(=C1SC=CS1)S(=O)(=O)C(C)C , thanks.
Out: 141 to 142 °C

In: Need melting point of CCOC(=O)c1cc(-c2ocnc2C)[nH]n1 , thanks.
Out: 131 to 133 °C

In: Need melting point of Cc1nc2ccccn2c(=O)c1CCN1CCC2C(C1)c1ccccc1N2Cc1ccccc1 (configuration not stated) , thanks.
Out: 145 °C
